biological target: DNA gyrase (Escherichia coli) (UniProt P0AES6+P0AES4); test: Minimum inhibitory concentration against Escherichia coli DNA-gyrase in supercoiling assay; type: functional
reportedProperty: MIC (µg/mL)
Please respond with the number in µg/mL and leave the unit unwritten.

NC1CCN(c2c(F)cc3c(=O)c(C(=O)O)cn(C4CC4)c3c2Cl)C1 (stereo in doubt; 1h-4): 0.5
O=C(O)c1cn(C2CC2)c2c(F)c(N3CCNCC3)c(F)c(O)c2c1=O: 0.5
C[C@@H]1CN(c2c(F)c(N)c3c(=O)c(C(=O)O)cn(C4CC4)c3c2F)C[C@H](C)N1 [SPARFLOXACIN]: 2.5
O=C(O)c1cn(C2CC2)c2c(Cl)c(N3CCNCC3)c(F)cc2c1=O: 0.5
CC1COc2c(N3CCC(N)C3)c(F)cc3c(=O)c(C(=O)O)cn1c23 (centres undefined): 0.75

Enquiry: I would be grateful if you could share the reported MIC for CC1CN(c2c(F)cc3c(=O)c(C(=O)O)cn(C4CC4)c3c2F)CC(C)N1 (centres undefined) .
Return: 2.5

Enquiry: Given the compound NC1CCN(c2cc3c(c(O)c2F)c(=O)c(C(=O)O)cn3C2CC2)C1 (centres undefined) , what is its reported MIC?
Return: 1

Enquiry: I am curious: what MIC value has been reported for CCNCC1CCN(c2c(F)cc3c(=O)c(C(=O)O)cn4c3c2OCC4C)C1 (centres undefined) ?
Return: 0.5

Enquiry: Requested read-out: MIC. Entry: `Nc1c(F)c(N2CCNCC2)c(F)c2c1c(=O)c(C(=O)O)cn2C1CC1`
Return: 0.5

====

test system: Staphylococcus aureus; assay: Antibacterial activity was determined against gram positive organism, Staphylococcus aureus UC76; format: functional; conditions: Staphylococcus aureus; read-out: MIC
reportedProperty: MIC (µg/mL)
Give just the numeric value; µg/mL need not be written.

Below, 8 molecules whose answers are already recorded.
CCn1cc(C(=O)O)c(=O)c2c(N)c(F)c(N3CCNCC3)c(Cl)c21: 0.4
CCn1cc(C(=O)O)c(=O)c2c(N)c(F)c(N3CC(C)NC(C)C3)c(Cl)c21 (stereo not given): 1.6
CC1CN(c2cc3c(cc2F)c(=O)c(C(=O)O)cn3C2CC2)CCN1 (stereo not given): 0.1
CCNCC1CCN(c2c(F)c(N)c3c(=O)c(C(=O)O)cn(CC)c3c2Cl)C1 (stereo not given): 0.4
NC1CCN(c2c(F)cc3c(=O)c(C(=O)O)cn(C4CC4)c3c2F)C1 (stereo not given): 0.013
O=C(O)c1cn(C2CC2)c2cc(N3CCNCC3)c(F)cc2c1=O: 0.2
CCNCC1CCN(c2c(F)c(N)c3c(=O)c(C(=O)O)cn(C4CC4)c3c2F)C1 (stereo not given): 0.003
CCn1cc(C(=O)O)c(=O)c2c(N)c(F)c(N3CCNC(C)C3)c(F)c21 (stereo not given): 0.4

Enquiry: What is its MIC for Staphylococcus aureus? Entry: `CCn1cc(C(=O)O)c(=O)c2c(N)c(F)c(N3CCNCC3)c(F)c21`
Return: 0.2

Enquiry: For Staphylococcus aureus, provide MIC of CC1COc2c(N3CCC(N)C3)c(F)c(N)c3c(=O)c(C(=O)O)cn1c23 (stereo not given) please.
Return: 0.2

====

tested on: Bacteria; test: Antibacterial activity was determined against gram negative organism, Providencia rettgeri. M1771; type: functional; details: Bacteria; read-out: MIC
Measured log10 of MIC by item
Field: value | Transform: log10 | Quantity: MIC | Unit: µg/mL

CCNCC1CCN(c2c(F)c(O)c3c(=O)c(C(=O)O)cn(CC)c3c2F)C1 (configuration not stated): 0.49
CCNCC1CCN(c2c(F)c(N)c3c(=O)c(C(=O)O)cn(C4CC4)c3c2Cl)C1 (configuration not stated): -0.10
CCNCC1CCN(c2c(F)c(N)c3c(=O)c(C(=O)O)cn(CC)c3c2Cl)C1 (configuration not stated): 1.10

Enquiry: # query: log10 of MIC | item `O=C(O)c1cn(C2CC2)c2c(F)c(N3CCNCC3)c(F)c(O)c2c1=O` | system: Bacteria
Return: -0.70

Enquiry: Checklist item: log10 of MIC tested on Bacteria, entry `CCn1cc(C(=O)O)c(=O)c2c(N)c(F)c(N3CCNCC3)c(F)c21` , value?
Return: -0.40

Enquiry: I'm curious: which log10 of MIC was measured for CCn1cc(C(=O)O)c(=O)c2cc(F)c(N3CCC(N)C3)c(Cl)c21 (configuration not stated) tested on Bacteria?
Return: -0.70

Enquiry: Kindly state the measured log10 of MIC obtained for CCNCC1CCN(c2cc3c(c(N)c2F)c(=O)c(C(=O)O)cn3C2CC2)C1 (configuration not stated) with Bacteria.
Return: -0.10

====

tested on: Bacteria; test: Antibacterial activity was determined against gram negative organism, Providencia rettgeri. M1771; type: functional; conditions: Bacteria; read-out: MIC
reportedProperty: MIC
Give the number first and the unit second.

CCn1cc(C(=O)O)c(=O)c2cc(F)c(N3CCC(N)C3)c(F)c21 (stereo not given): 0.2 µg/mL

Enquiry: Can you share its MIC? I mean this compound: `Nc1c(F)c(N2CCNCC2)cc2c1c(=O)c(C(=O)O)cn2C1CC1`
Return: 0.025 µg/mL

Enquiry: Give its MIC value. Item: CCNCC1CCN(c2cc3c(cc2F)c(=O)c(C(=O)O)cn3C2CC2)C1 (stereo not given)
Return: 0.8 µg/mL

Enquiry: Look at this compound and give its reported MIC. CC1COc2c(N3CCC(N)C3)c(F)c(N)c3c(=O)c(C(=O)O)cn1c23 (stereo not given)
Return: 1.6 µg/mL

Enquiry: Which MIC is reported for this compound? CCNCC1CCN(c2c(F)cc3c(=O)c(C(=O)O)cn(C4CC4)c3c2F)C1 (stereo not given)
Return: 0.2 µg/mL

Enquiry: Which MIC reading was recorded for the compound CC1CN(c2cc3c(cc2F)c(=O)c(C(=O)O)cn3C2CC2)CC(C)N1 (stereo not given) ?
Return: 0.2 µg/mL

Enquiry: // MIC lookup, key: `O=C(O)c1cn(C2CC2)c2cc(N3CCNCC3)c(F)c(O)c2c1=O`
Return: 0.1 µg/mL

====

system: Staphylococcus aureus; assay: Antibacterial activity was determined against gram positive organism, Staphylococcus aureus H228; assay type: functional; conditions: Staphylococcus aureus; read-out: MIC
Cut-off 0.8 µg/mL on MIC: below means TRUE, at or above means FALSE.

Enquiry: Strictly below 0.8 µg/mL: is that where MIC of CCn1cc(C(=O)O)c(=O)c2cc(F)c(N3CCNC(C)C3)c(F)c21 (centres undefined) [LOMEFLOXACIN] sits?
Return: FALSE

Enquiry: In plain terms, does O=C(O)c1cn(C2CC2)c2cc(N3CCNCC3)c(F)cc2c1=O [CIPROFLOXACIN] come in under 0.8 µg/mL for MIC?
Return: FALSE

Enquiry: Problem: For the compound CCn1cc(C(=O)O)c(=O)c2cc(F)c(N3CCNC(C)C3)cc21 (centres undefined) , is MIC under 0.8 µg/mL?
Return: FALSE

Enquiry: Check if MIC falls below 0.8 µg/mL for Nc1c(F)c(N2CCC(N)C2)c(Cl)c2c1c(=O)c(C(=O)O)cn2C1CC1 (centres undefined) .
Return: TRUE

Enquiry: Please let me know if CC1CN(c2c(F)cc3c(=O)c(C(=O)O)cn(C4CC4)c3c2F)CCN1 (centres undefined) shows MIC below 0.8 µg/mL.
Return: TRUE

Enquiry: Consider the compound `CCn1cc(C(=O)O)c(=O)c2c(N)c(F)c(N3CCNCC3)c(Cl)c21` . Is its MIC strictly less than 0.8 µg/mL?
Return: FALSE

Enquiry: Item `O=C(O)c1cn(C2CC2)c2cc(N3CCNCC3)c(F)c(O)c2c1=O` : MIC beneath 0.8 µg/mL, strictly?
Return: FALSE

====

The reader will find reported ED50 values listed item by item below.
test system: Escherichia coli; assay: The in vivo potency was determined in female charles river CD-1 mice infected with Escherichia coli after peroral administration; assay type: functional; conditions: Escherichia coli, po; read-out: PD50
State the answer as a number, implicitly in mg/kg.

Worked cases, ED50 given:
CC1CN(c2c(F)c(O)c3c(=O)c(C(=O)O)cn(C4CC4)c3c2F)CCN1 (stereo not given): 2
O=C(O)c1cn(C2CC2)c2c(Cl)c(N3CCNCC3)c(F)cc2c1=O: 0.8
CCNCC1CCN(c2cc3c(c(N)c2F)c(=O)c(C(=O)O)cn3C2CC2)C1 (stereo not given): 90
NC1CCN(c2c(F)c(O)c3c(=O)c(C(=O)O)cn(C4CC4)c3c2F)C1 (stereo not given): 2
O=C(O)c1cn(C2CC2)c2c(F)c(N3CCNCC3)c(F)cc2c1=O: 0.5

Enquiry: Record request: ED50 value, item CC1CN(c2c(F)c(N)c3c(=O)c(C(=O)O)cn(C4CC4)c3c2F)CCN1 (stereo not given)
Return: 0.5

Enquiry: Param item = CCNCC1CCN(c2c(F)c(N)c3c(=O)c(C(=O)O)cn(C4CC4)c3c2F)C1 (stereo not given) ; retrieve measured ED50.
Return: 16

Enquiry: What does the record list as ED50 for `O=C(O)c1cn(C2CC2)c2cc(N3CCNCC3)c(F)c(O)c2c1=O` ?
Return: 3

Enquiry: Look up ED50 for this molecule: CC1CN(c2c(F)cc3c(=O)c(C(=O)O)cn(C4CC4)c3c2F)CCN1 (stereo not given)
Return: 0.8

Enquiry: # query: ED50 of entry NC1CCN(c2c(F)cc3c(=O)c(C(=O)O)cn(C4CC4)c3c2Cl)C1 (stereo in doubt; 1f-4) [CLINAFLOXACIN]
Return: 3
